target desc: Human CD40 (human, UniProt P25942 21-277)
Sequence (P25942 21-277 limits assumed): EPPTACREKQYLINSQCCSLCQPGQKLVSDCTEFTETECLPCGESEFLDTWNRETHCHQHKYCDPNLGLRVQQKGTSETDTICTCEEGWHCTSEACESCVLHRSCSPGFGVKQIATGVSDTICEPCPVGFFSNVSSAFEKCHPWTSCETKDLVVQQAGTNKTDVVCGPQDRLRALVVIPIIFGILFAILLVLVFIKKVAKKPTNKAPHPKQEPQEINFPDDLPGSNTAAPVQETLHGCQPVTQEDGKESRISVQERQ
assay details: cell-based or functional assay
readout kind: Antagonist: Jurkat/Reporter assay (IC50 nM)
Numbers only; they are read as nM.

Completed entries (count: 2):
huAb1v1CDR2v12 (antibody, V domains shown) VH: EVQLVESGGGLVKPGGSLRLSCAASGFTFSDYGMNWVRQAPGKGLEWIAYISSGRKNIYYADTVKGRFTISRDNAKNSLYLQMNSLRAEDTAVYYCARSWGYFDVWGQGTTVTVSS VL: DIVMTQSPDSLAVSLGERATINCKSSQSLLNRGNQKNYLTWFQQKPGQPPKLLIYWASTRESGVPDRFSGSGSGTDFTLTISSLQAEDVAVYYCQNDYTYPLTFGQGTKLEIK
236
huAb1v1CDR2v17 (antibody, V domains shown) VH: EVQLVESGGGLVKPGGSLRLSCAASGFTFSDYGMNWVRQAPGKGLEWIAYISSGRPNIYYADTVKGRFTISRDNAKNSLYLQMNSLRAEDTAVYYCARSWGYFDVWGQGTTVTVSS VL: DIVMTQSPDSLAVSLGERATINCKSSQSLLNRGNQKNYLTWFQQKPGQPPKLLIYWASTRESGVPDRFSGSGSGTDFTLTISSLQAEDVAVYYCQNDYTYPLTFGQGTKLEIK
504

Read the next record carefully.
I have this binder here, huAb1v1CDR2v10 (antibody, V domains shown) VH: EVQLVESGGGLVKPGGSLRLSCAASGFTFSDYGMNWVRQAPGKGLEWIAYISSGRWNIYYADTVKGRFTISRDNAKNSLYLQMNSLRAEDTAVYYCARSWGYFDVWGQGTTVTVSS VL: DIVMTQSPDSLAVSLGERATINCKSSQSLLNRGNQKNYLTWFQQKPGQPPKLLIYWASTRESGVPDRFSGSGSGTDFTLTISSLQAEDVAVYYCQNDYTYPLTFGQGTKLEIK , and I need its recorded Antagonist: Jurkat/Reporter assay (IC50 nM).
23
